Where do these numbers come from? They come from ChEMBL document CHEMBL4152384.

Attribute: viability at 10 µM
assay: Cytotoxicity against HEK cells assessed as cell viability at 10 uM by MTT assay relative to control; type: cell-based; details: human, read-out: Activity
A number alone suffices; assume %.

Compound | Metric Name | Test Value
CC(C)OC(=O)c1cnn(-c2ccc(-n3cc(-c4cccc(C(=O)O)c4)nn3)cc2)c1C(F)(F)F | viability at 10 µM | 87.2
CCOC(=O)c1cnn(-c2ccc(-n3cc(-c4cccc(C(=O)NO)c4)nn3)cc2)c1C(F)(F)F | viability at 10 µM | 67.5
CCOC(=O)c1cnn(-c2ccc(-n3cc(-c4cccc(C(=O)O)c4)nn3)cc2)c1C(F)(F)F | viability at 10 µM | 84
CCOC(=O)c1cnn(-c2ccc(NC(=O)c3cccc(C(=O)O)c3)cc2)c1C(F)(F)F | viability at 10 µM | 65.9
CCCC(C)OC(=O)c1cnn(-c2ccc(-n3cc(-c4cccc(C(=O)O)c4)nn3)cc2)c1C(F)(F)F (centres undefined) | viability at 10 µM | 93.6
COC(=O)c1cnn(-c2ccc(-n3cc(-c4cccc(C(=O)O)c4)nn3)cc2)c1C(F)(F)F | viability at 10 µM | 69.2

In: I am curious: what viability at 10 µM value has been reported for "O=C(Nc1ccc(-n2nc(C(F)(F)F)cc2C(F)(F)F)cc1)c1ccncc1F" ?
Out: 70.3

In: Report viability at 10 µM for "CCOC(=O)c1cnn(-c2ccc(NC(=O)C(Cl)=C(Cl)Cl)cc2)c1C(F)(F)F" please.
Out: 28.6

In: For the compound shown here, "O=C(O)c1cccc(-c2cn(-c3ccc(-n4ncc(C(=O)OCc5ccccc5)c4C(F)(F)F)cc3)nn2)c1" , give the reported viability at 10 µM.
Out: 82.2

---

experiment: Metabolic stability in CD1 mouse plasma assessed as residual compound level at 50 uM after 30 mins by LC-UV analysis; type: ADME, cell-free; details: read-out: Stability
Metric Name: remaining at 0.5 h, 50 µM (%)
Lab book: enter the figure in %, no units written.

Molecule | Units Of Measure | remaining at 0.5 h, 50 µM
CCCC(C)OC(=O)c1cnn(-c2ccc(-n3cc(-c4cccc(C(=O)O)c4)nn3)cc2)c1C(F)(F)F (stereo not given) | % | 97.8
CCOC(=O)c1cnn(-c2ccc(NC(=O)C(Cl)=C(Cl)Cl)cc2)c1C(F)(F)F | % | 20.4
CCOC(=O)c1cnn(-c2ccc(-n3cc(-c4cccc(C(=O)O)c4)nn3)cc2)c1C(F)(F)F | % | 0

In: // returns reported remaining at 0.5 h, 50 µM for input "CC(C)OC(=O)c1cnn(-c2ccc(-n3cc(-c4cccc(C(=O)O)c4)nn3)cc2)c1C(F)(F)F"
Out: 87.7

In: Which remaining at 0.5 h, 50 µM reading was recorded for the molecule "COC(=O)c1cnn(-c2ccc(-n3cc(-c4cccc(C(=O)O)c4)nn3)cc2)c1C(F)(F)F" ?
Out: 6.5

---

target: Stromal interaction molecule 1 & 2/Calcium release-activated calcium channel protein 1 (Mus musculus) (UniProt Q8BWG9+P70302+P83093); assay: Modulation of STIM1/STIM2/Orai1 in mouse BV2 cells assessed as induction of store-operated calcium entry by measuring residual activity at 10 uM preincubated for 30 mins followed by tBhQ-mediated Ca2+ depletion and Ca2+ re-addition to extracellular solution measured for 600 secs by Fluo-4 AM-based fluorometric assay relative to control; format: cell-based
Metric Name: Activity (%)
Reply with just the number (in %).

Smiles | Metric Name | Test Value
CCOC(=O)c1cnn(-c2ccc(-n3cc(-c4cccc(OC)c4)nn3)cc2)c1C(F)(F)F | Activity | 105

# input for lookup
In: Entry under review: "CCOC(=O)c1cnn(-c2ccc(-n3cc(CCCC(=O)O)nn3)cc2)c1C(F)(F)F" . Reported Activity?
Out: 72.2

---

target: Stromal interaction molecule 1 & 2/Calcium release-activated calcium channel protein 1 (Mus musculus) (UniProt Q8BWG9+P70302+P83093); test: Modulation of STIM1/STIM2/Orai1 in mouse BV2 cells assessed as induction of store-operated calcium entry by measuring residual activity at 10 uM preincubated for 30 mins followed by tBhQ-mediated Ca2+ depletion and Ca2+ re-addition to extracellular solution measured for 600 secs by Fluo-4 AM-based fluorometric assay relative to control; assay type: cell-based
Kindly return label 1 if reported Activity is no lower than 90%; return label 0 if it is lower.

Smiles | Classification
CCOC(=O)c1cnn(-c2ccc(-c3cn(-c4ccc(OC)c(OC)c4)nn3)cc2)c1C(F)(F)F | label 1
CCOC(=O)c1cnn(-c2ccc(-n3cc(-c4cccc(NC(C)=O)c4)nn3)cc2)c1C(F)(F)F | label 0
CCOC(=O)c1cnn(-c2ccc(-c3cn(-c4ccc(NC(C)=O)cc4)nn3)cc2)c1C(F)(F)F | label 1
CCOC(=O)c1cnn(-c2ccc(-n3cc(-c4ccncc4)nn3)cc2)c1C(F)(F)F | label 0
O=C(O)CCCc1cn(-c2ccc(-n3nc(C(F)(F)F)cc3C(F)(F)F)cc2)nn1 | label 0

We next turn to a different molecule, shown below.
In: Identify whether the reported Activity of the following molecule is 90% or greater: "FC(F)(F)c1cc(C(F)(F)F)n(-c2ccc(-n3cc(-c4ccccc4)nn3)cc2)n1"
Out: label 1

---

assay: Clearance in ip dosed CD1 mouse by LC-ESI-MS analysis; type: ADME, organism-based; settings: in vivo
Metric Name: CL/F
Entry format: amount then unit.

In: For the molecule CCCC(C)OC(=O)c1cnn(-c2ccc(-n3cc(-c4cccc(C(=O)O)c4)nn3)cc2)c1C(F)(F)F (stereo unspecified) , what CL/F is on record?
Out: 283 mL/min/kg

---

experiment: Cmax in ip dosed CD1 mouse after 1 hr by LC-ESI-MS analysis; assay type: ADME, organism-based; design: route intraperitoneal; conditions: in vivo
Metric Name: Cmax (ng/mL)
Form entry: value (ng/mL) — number only.

In: Fill blank: measured Cmax of the compound CCCC(C)OC(=O)c1cnn(-c2ccc(-n3cc(-c4cccc(C(=O)O)c4)nn3)cc2)c1C(F)(F)F (stereo unspecified) is ____.
Out: 640

---

molecular target: Short transient receptor potential channel 1 & 3/Stromal interaction molecule 1/Calcium release-activated calcium channel protein 1 (Homo sapiens) (UniProt Q96D31+Q13507+Q13586+P48995); assay: Modulation of TRPC1/TRPC3/STIM1/Orai1 in HEK cells assessed as induction of store-operated calcium entry by measuring residual activity at 10 uM preincubated for 30 mins followed by tBhQ-mediated Ca2+ depletion and Ca2+ re-addition to extracellular solution measured for 600 secs by Fluo-4 AM-based fluorometric assay relative to control; type: cell-based
Sequence (P48995 whole entry partner): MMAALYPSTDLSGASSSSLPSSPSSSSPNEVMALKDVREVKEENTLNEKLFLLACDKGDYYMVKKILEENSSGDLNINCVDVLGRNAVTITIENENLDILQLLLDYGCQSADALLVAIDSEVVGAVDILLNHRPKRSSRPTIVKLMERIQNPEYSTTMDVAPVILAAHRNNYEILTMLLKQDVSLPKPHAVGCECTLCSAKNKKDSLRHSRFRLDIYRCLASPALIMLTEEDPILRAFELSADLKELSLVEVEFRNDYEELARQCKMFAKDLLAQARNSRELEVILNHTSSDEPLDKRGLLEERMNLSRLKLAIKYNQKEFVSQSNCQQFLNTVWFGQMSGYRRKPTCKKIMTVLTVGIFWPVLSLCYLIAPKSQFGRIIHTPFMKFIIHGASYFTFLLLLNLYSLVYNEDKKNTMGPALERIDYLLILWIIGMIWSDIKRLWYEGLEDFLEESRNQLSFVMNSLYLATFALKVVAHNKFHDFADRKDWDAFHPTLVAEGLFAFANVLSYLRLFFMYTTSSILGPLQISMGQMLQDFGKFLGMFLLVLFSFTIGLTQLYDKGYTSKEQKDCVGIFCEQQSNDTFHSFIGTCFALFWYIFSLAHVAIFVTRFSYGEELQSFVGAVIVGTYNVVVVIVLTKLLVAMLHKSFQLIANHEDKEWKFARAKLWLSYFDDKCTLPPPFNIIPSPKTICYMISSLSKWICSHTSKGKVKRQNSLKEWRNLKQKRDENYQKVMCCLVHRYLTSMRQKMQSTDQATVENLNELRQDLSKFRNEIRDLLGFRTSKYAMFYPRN
Sequence (Q13507 whole entry partner): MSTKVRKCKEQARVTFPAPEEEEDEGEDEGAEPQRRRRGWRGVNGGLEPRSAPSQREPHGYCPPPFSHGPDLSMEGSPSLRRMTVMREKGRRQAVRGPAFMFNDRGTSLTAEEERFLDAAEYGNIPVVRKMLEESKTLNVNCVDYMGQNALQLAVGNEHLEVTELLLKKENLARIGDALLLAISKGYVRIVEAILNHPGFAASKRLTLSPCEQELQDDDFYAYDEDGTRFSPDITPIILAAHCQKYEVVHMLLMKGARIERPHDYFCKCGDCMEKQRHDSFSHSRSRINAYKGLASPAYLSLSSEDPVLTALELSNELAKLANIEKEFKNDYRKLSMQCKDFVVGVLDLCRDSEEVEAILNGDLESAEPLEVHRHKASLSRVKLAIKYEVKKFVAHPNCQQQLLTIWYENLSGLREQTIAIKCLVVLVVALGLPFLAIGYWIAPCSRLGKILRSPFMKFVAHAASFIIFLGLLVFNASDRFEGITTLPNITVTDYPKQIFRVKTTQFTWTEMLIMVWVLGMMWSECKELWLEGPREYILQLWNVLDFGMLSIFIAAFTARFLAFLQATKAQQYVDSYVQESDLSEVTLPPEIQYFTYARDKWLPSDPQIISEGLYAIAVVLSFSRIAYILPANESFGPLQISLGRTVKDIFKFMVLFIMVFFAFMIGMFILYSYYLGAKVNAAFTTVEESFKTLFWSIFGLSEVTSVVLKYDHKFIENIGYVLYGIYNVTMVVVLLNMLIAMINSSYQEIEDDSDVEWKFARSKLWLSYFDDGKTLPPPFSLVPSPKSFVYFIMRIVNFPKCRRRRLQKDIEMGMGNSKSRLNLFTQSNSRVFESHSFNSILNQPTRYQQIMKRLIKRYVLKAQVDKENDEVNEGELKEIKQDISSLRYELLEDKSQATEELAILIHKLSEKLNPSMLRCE
Sequence (Q13586 23-685 partner limits assumed): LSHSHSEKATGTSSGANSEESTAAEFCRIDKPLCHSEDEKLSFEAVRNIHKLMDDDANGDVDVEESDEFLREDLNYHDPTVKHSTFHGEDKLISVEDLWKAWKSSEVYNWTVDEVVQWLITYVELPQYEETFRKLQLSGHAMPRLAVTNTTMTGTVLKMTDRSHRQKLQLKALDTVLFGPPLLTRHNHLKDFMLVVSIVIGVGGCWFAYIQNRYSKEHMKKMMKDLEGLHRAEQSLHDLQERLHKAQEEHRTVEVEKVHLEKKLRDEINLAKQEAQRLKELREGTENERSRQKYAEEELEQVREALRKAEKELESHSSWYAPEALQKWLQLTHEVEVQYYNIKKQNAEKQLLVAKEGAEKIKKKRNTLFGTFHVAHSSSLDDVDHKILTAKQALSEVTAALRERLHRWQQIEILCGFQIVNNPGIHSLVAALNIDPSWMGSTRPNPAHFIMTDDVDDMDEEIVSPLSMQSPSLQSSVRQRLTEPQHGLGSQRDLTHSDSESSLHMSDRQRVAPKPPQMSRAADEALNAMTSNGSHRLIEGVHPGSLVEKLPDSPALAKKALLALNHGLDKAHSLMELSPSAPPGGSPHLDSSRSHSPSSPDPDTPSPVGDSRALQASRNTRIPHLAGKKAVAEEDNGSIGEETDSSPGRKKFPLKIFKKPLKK
Sequence (Q96D31 whole entry): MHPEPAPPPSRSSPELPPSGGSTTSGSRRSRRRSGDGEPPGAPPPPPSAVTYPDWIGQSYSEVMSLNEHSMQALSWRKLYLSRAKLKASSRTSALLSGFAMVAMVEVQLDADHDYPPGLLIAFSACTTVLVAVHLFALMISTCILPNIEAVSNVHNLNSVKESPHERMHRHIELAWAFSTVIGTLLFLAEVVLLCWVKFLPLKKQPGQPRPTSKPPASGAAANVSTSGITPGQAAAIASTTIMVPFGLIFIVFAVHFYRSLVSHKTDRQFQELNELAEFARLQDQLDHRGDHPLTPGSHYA
Activity for assorted compounds
// return numeric value only (unit: %, not printed)

In: Need Activity, item "CCOC(=O)c1cnn(-c2ccc(NC(=O)C(Cl)=C(Cl)Cl)cc2)c1C(F)(F)F"
Out: 8.9

In: What Activity value was documented for this compound, "CCOC(=O)c1cnn(-c2ccc(-n3cc(-c4cccc(C(N)=O)c4)nn3)cc2)c1C(F)(F)F" ?
Out: 72.1

In: Value lookup for Activity; key = "CCOC(=O)c1cnn(-c2ccc(-n3cc(-c4cccc(C(=O)O)c4)nn3)cc2)c1C(F)(F)F"
Out: 12.8

In: Record request: Activity value, item "O=C(O)c1ccc(-c2cn(-c3ccc(-n4nc(C(F)(F)F)cc4C(F)(F)F)cc3)nn2)cc1"
Out: 213

In: Looking for the measured Activity of "COC(=O)c1cnn(-c2ccc(-n3cc(-c4cccc(C(=O)O)c4)nn3)cc2)c1C(F)(F)F" , can you help?
Out: 7.9

In: I'd like to know its Activity. The compound in question is "CC(C)OC(=O)c1cnn(-c2ccc(-n3cc(-c4cccc(C(=O)O)c4)nn3)cc2)c1C(F)(F)F"
Out: 3.5

---

target: Short transient receptor potential channel 1 & 3/Stromal interaction molecule 1/Calcium release-activated calcium channel protein 1 (Homo sapiens) (UniProt Q96D31+Q13507+Q13586+P48995); assay: Modulation of TRPC1/TRPC3/STIM1/Orai1 in HEK cells assessed as induction of store-operated calcium entry by measuring residual activity at 10 uM preincubated for 30 mins followed by tBhQ-mediated Ca2+ depletion and Ca2+ re-addition to extracellular solution measured for 600 secs by Fluo-4 AM-based fluorometric assay relative to control; assay type: cell-based
Catalogue of Activity readings, one per entry.
The response must be a number in % with no trailing unit.

In: Look at this compound and give its reported Activity. "CCOC(=O)c1cnn(-c2ccc(-c3cn(CCCC(=O)O)nn3)cc2)c1C(F)(F)F"
Out: 95.5

In: Which Activity value belongs to CCCC(C)OC(=O)c1cnn(-c2ccc(-n3cc(-c4cccc(C(=O)O)c4)nn3)cc2)c1C(F)(F)F (stereo unspecified) ?
Out: 17.5

---

target: Stromal interaction molecule 1 & 2/Calcium release-activated calcium channel protein 1 (Mus musculus) (UniProt Q8BWG9+P70302+P83093); test: Modulation of STIM1/STIM2/Orai1 in mouse BV2 cells assessed as induction of store-operated calcium entry by measuring residual activity at 10 uM preincubated for 30 mins followed by tBhQ-mediated Ca2+ depletion and Ca2+ re-addition to extracellular solution measured for 600 secs by Fluo-4 AM-based fluorometric assay relative to control; type: cell-based
Metric Name: Activity (%)
Could you give me the number in %? Just the number is fine.

// solved cases for Activity follow
Smiles | Activity, %
Fc1cnccc1-n1cc(-c2ccc(-n3nc(C(F)(F)F)cc3C(F)(F)F)cc2)nn1 | 106
CCOC(=O)c1cnn(-c2ccc(-n3cc(-c4ccc(OC)cc4)nn3)cc2)c1C(F)(F)F | 95.6

In: Which Activity is reported for this compound? "FC(F)(F)c1cc(C(F)(F)F)n(-c2ccc(-n3cc(-c4ccncc4)nn3)cc2)n1"
Out: 94.7
